These entries and their values trace back to ChEMBL document CHEMBL4393680.

System: SMMC-7721
Assay: Cell cycle arrest in human SMMC7721 cells assessed as accumulation at G0/G1 phase at 4 uM incubated for 48 hrs by propidium iodide staining based flow cytometry (Rvb=77%)
Assay type: functional
Measured Activity values are reported for all entries that follow.
Expressed in %, but write only the number.

Data request: Value lookup for Activity; key = "Nc1ccc(F)cc1NC(=O)c1ccc(CNC(=O)/C=C/c2cccnc2)cc1"
Data returned: 76.78

Next:
Data request: // returns reported Activity for input "CCn1c(SCc2ccc(/C=C/C(=O)Nc3ccccc3N)cc2)nc2cc(OC)ccc2c1=O"
Data returned: 53.62

Data request: Tell me the measured Activity of "COc1ccc2c(=O)n(-c3ccccc3Cl)c(SCc3ccc(C(=O)Nc4ccccc4N)cc3)nc2c1" , please.
Data returned: 27.52

Data request: Requested read-out: Activity. Entry: "COc1ccc2c(=O)n(C)c(SCc3ccc(C(=O)Nc4ccccc4N)cc3)nc2c1"
Data returned: 46.09

Data request: Please give the measured Activity for this compound: "CC(=O)Nc1ccc(C(=O)Nc2ccccc2N)cc1"
Data returned: 70.12

Data request: Please report the recorded Activity for "Cn1c(SCc2ccc(C(=O)Nc3ccccc3N)cc2)nc2cc(Br)ccc2c1=O" .
Data returned: 56.05

Data request: Please report the recorded Activity for "Nc1ccccc1NC(=O)c1ccc(CNC(=O)OCc2cccnc2)cc1" .
Data returned: 71.44

###

Test system: SMMC-7721
Assay: Antiproliferative activity against human SMMC7721 cells assessed as reduction in cell growth incubated for 72 hrs by CCK-8 assay
Format: functional, cell-based
Conditions: SMMC-7721, 72 h
pIC50 by entry:
pIC50 here is simply -log10 of the concentration when that concentration is written in mol/L.

Data request: Would you mind telling me what pIC50 value was observed for "Cc1cccc2c(=O)n(C)c(SCc3ccc(C(=O)Nc4ccccc4N)cc3)nc12" ?
Data returned: 5.57

Data request: For "Cc1ccc2c(=O)n(C)c(SCc3ccc(C(=O)Nc4ccccc4N)cc3)nc2c1" , what is its reported pIC50?
Data returned: 5.44

Data request: Param item = "Cn1c(SCc2ccc(C(=O)Nc3ccccc3N)cc2)nc2cc(F)ccc2c1=O" ; retrieve measured pIC50.
Data returned: 6.05

Next:
Data request: State the recorded pIC50 for this entry: "COc1ccc2c(=O)n(-c3ccccc3Cl)c(SCc3ccc(C(=O)Nc4ccccc4N)cc3)nc2c1"
Data returned: 5.67

Data request: Any idea what pIC50 was measured for "Cc1ccc2c(=O)n(C)c(SCc3ccc(/C=C/C(=O)Nc4ccccc4N)cc3)nc2c1" ?
Data returned: 5.19

Data request: Fill in: pIC50 of "Cn1c(SCc2ccc(C(=O)Nc3ccccc3N)cc2)nc2cc(Br)ccc2c1=O" is ___
Data returned: 5.25

Data request: What measured pIC50 goes with "Cc1cccc2nc(SCc3ccc(/C=C/C(=O)Nc4ccccc4N)cc3)n(C)c(=O)c12" ?
Data returned: 5.45

Data request: // query pIC50 value for entry "Cc1cccc2nc(SCc3ccc(C(=O)Nc4ccccc4N)cc3)n(C)c(=O)c12"
Data returned: 6.16

Data request: Looking for the measured pIC50 of "COc1ccc2c(=O)n(C)c(SCc3ccc(C(=O)Nc4ccccc4N)cc3)nc2c1" , can you help?
Data returned: 7.52

Data request: Please give the measured pIC50 for this compound: "CCn1c(SCc2ccc(/C=C/C(=O)Nc3ccccc3N)cc2)nc2cc(OC)ccc2c1=O"
Data returned: 7.22

Data request: Using the record for "Cn1c(SCc2ccc(C(=O)Nc3ccccc3N)cc2)nc2cc(Cl)ccc2c1=O" , report its pIC50.
Data returned: 5.48

Data request: Given "Cc1ccc2nc(SCc3ccc(C(=O)Nc4ccccc4N)cc3)n(C)c(=O)c2c1" , state its recorded pIC50.
Data returned: 5.78

Data request: pIC50 for "CCn1c(SCc2ccc(C(=O)Nc3cc(F)ccc3N)cc2)nc2cc(OC)ccc2c1=O" ?
Data returned: 5.31

Data request: pIC50 lookup needed for "COc1ccc2c(=O)n(-c3ccccc3C)c(SCc3ccc(C(=O)Nc4ccccc4N)cc3)nc2c1" , thanks.
Data returned: 5.27
